system: mV1_T551M (Mus musculus, UniProt Q704Y3, T551M)
Construct: HEK293 (calcium imaging)
Sequence (Q704Y3 whole entry T551M): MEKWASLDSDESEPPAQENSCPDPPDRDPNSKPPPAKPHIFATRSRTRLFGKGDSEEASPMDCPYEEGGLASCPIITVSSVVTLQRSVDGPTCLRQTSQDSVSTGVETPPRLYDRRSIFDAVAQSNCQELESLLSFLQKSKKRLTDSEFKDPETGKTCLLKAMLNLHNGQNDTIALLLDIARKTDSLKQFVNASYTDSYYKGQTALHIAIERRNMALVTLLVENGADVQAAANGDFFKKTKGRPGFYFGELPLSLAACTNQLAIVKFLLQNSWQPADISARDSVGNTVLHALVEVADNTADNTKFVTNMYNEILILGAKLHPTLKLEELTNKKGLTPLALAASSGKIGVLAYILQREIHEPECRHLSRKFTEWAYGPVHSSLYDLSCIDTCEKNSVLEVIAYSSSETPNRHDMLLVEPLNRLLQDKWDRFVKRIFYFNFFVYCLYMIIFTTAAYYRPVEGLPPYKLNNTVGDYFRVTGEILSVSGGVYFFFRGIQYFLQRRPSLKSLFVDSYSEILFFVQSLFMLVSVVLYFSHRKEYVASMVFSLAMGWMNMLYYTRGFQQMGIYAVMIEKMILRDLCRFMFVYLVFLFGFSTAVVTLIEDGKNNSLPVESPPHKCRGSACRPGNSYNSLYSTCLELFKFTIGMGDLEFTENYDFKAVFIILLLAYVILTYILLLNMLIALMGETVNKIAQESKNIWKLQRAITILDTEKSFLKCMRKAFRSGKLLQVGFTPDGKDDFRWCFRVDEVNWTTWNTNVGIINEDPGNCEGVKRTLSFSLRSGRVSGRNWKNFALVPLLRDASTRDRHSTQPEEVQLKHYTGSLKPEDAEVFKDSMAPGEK
measurementDescription: cell-based
measuredEndpoint: pEC50
Remember, pEC50 is on a log scale: it is -log10 of the molar concentration.

Prompt line: # lookup: pEC50 of CCCCC/C=C/C=C/C(=O)NCCc1ccc(O)c(OC)c1 [Cap2]
Response line: 3.82

---

system: tsV1_M579S (Tupaia chinensis, UniProt L8Y7X1, M598S)
measurementDescription: cell-based
measuredEndpoint: pEC50
Remember, pEC50 is on a log scale: it is -log10 of the molar concentration.

Prompt line: Value wanted: pEC50 (tsV1_M579S (Tupaia chinensis, UniProt L8Y7X1, M598S)) of entry CCCCC/C=C/C=C/C(=O)NCCc1ccc(O)c(OC)c1 [Cap2]
Response line: 5.26

---

system: tree shrew TRPV1 (tsV1) (Tupaia chinensis, UniProt L8Y7X1)
Sequence (L8Y7X1 1-828): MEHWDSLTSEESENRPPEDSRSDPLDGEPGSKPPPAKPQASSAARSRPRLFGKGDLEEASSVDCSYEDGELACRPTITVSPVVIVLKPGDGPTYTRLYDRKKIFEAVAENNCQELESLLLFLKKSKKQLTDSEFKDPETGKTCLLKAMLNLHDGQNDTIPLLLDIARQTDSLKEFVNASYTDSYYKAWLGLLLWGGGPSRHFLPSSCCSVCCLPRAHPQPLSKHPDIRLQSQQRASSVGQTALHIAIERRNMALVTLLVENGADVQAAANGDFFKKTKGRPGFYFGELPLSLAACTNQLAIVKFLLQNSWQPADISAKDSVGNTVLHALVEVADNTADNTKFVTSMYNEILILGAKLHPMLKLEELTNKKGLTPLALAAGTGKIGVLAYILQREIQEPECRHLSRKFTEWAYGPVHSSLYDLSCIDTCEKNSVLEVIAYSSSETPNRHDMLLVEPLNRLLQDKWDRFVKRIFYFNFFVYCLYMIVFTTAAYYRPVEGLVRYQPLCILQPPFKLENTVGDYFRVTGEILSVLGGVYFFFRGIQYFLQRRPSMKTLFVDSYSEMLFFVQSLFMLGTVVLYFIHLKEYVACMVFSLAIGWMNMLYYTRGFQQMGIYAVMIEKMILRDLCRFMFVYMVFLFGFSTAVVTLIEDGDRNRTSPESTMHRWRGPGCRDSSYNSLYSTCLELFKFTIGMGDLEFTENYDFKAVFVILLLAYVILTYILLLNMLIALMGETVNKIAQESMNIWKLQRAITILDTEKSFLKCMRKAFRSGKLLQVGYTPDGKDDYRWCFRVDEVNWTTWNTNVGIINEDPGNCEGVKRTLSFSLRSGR
measurementDescription: cell-based
particulars: EC50 for activation of tsV1
measuredEndpoint: EC50 (µM)
Note: unit µM is implicit; provide only the numeric part.

Prompt line: # lookup: EC50 of `COc1cc(CNC(=O)CCCC/C=C/C(C)C)ccc1O`
Response line: 5.2

---

system: human TRPV1 (hV1) (Homo sapiens, UniProt Q8NER1)
Construct: expressed in transfected cells; host or cells: HEK293T
Sequence (Q8NER1 whole entry): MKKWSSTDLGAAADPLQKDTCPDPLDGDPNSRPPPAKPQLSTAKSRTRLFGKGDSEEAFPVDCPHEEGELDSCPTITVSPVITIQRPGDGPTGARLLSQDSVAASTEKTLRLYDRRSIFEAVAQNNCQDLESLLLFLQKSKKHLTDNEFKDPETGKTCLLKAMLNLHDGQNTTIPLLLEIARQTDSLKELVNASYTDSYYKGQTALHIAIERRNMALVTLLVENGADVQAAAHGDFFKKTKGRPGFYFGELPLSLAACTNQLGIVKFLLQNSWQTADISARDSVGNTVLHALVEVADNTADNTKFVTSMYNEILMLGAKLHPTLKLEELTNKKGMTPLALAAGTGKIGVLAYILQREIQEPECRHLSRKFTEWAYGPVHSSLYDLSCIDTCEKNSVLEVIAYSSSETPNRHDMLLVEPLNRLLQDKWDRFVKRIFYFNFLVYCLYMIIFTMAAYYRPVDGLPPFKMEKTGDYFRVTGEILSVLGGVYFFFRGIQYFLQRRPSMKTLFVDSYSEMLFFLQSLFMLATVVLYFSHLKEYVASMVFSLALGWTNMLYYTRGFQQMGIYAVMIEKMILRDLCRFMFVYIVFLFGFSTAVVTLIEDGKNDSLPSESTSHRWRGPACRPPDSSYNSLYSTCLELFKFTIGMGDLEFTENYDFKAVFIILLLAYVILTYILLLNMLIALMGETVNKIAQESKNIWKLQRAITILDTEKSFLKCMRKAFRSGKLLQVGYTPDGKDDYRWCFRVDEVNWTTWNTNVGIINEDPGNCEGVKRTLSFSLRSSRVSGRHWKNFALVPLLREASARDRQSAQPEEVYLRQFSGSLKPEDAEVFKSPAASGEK
measurementDescription: cell-based
measuredEndpoint: pEC50
Remember, pEC50 is on a log scale: it is -log10 of the molar concentration.

Prompt line: # lookup: pEC50 of `CCCCC/C=C/C=C/C(=O)NCCc1ccc(O)c(OC)c1`
Response line: 5.24

---

system: tsV1_M579T (Tupaia chinensis, UniProt L8Y7X1, M598T)
Sequence (L8Y7X1 1-828 M598T): as the sequence (L8Y7X1 1-828) above, with M598T counted along it
measurementDescription: cell-based
measuredEndpoint: pEC50
Remember, pEC50 is on a log scale: it is -log10 of the molar concentration.

Prompt line: # lookup: pEC50 of CCCCC/C=C/C=C/C(=O)NCCc1ccc(O)c(OC)c1 [Cap2]
Response line: 5.63

---

system: mV1_T551V (Mus musculus, UniProt Q704Y3, T551V)
Sequence (Q704Y3 whole entry T551V): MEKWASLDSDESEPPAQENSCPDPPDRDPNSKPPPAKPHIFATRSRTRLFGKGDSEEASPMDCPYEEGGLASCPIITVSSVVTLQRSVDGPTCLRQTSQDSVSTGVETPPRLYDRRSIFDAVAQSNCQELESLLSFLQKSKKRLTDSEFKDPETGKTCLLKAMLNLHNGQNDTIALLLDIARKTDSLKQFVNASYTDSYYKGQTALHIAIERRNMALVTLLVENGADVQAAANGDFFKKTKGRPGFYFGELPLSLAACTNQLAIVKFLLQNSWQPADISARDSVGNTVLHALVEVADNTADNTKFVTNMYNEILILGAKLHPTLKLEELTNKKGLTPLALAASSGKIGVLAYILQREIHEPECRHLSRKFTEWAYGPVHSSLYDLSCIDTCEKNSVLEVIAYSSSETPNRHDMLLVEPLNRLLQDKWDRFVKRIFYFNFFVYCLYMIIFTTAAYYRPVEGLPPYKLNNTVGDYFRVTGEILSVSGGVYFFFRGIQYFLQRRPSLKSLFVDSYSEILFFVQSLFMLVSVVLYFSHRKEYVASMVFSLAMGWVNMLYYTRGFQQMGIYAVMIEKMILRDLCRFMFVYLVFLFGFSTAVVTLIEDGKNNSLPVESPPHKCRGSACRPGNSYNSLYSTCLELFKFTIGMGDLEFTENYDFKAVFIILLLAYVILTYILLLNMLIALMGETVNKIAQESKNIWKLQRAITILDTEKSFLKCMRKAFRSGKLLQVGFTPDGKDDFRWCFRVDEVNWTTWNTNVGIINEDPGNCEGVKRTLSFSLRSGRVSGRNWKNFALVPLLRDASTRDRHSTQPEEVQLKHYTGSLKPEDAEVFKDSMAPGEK
measurementDescription: cell-based
pEC50: −log10 of the molar value.
measuredEndpoint: pEC50

Prompt line: # lookup: pEC50 of COc1cc(CNC(=O)CCCC/C=C/C(C)C)ccc1O [capsaicin]
Response line: ~5.82

---

system: tsV1_M579A (Tupaia chinensis, UniProt L8Y7X1, M598A)
measurementDescription: cell-based
measuredEndpoint: EC50 (µM)
Note: unit µM is implicit; provide only the numeric part.

Prompt line: # lookup: EC50 of CCCCC/C=C/C=C/C(=O)NCCc1ccc(O)c(OC)c1 [Cap2]
Response line: 1070

---

system: mouse TRPV1 (mV1) (Mus musculus)
Sequence (Q704Y3 whole entry): as the sequence (Q704Y3 whole entry T551M) above, with M551T counted along it
measurementDescription: cell-based
particulars: EC50 for activation of mV1
measuredEndpoint: EC50
Reply with the number, then its unit.

Prompt line: # lookup: EC50 of `CCCCC/C=C/C=C/C(=O)NCCc1ccc(O)c(OC)c1`
Response line: 740 nM

---

system: polar bear TRPV1 (pV1) (Ursus maritimus)
Sequence (A0A384CG69 1-841): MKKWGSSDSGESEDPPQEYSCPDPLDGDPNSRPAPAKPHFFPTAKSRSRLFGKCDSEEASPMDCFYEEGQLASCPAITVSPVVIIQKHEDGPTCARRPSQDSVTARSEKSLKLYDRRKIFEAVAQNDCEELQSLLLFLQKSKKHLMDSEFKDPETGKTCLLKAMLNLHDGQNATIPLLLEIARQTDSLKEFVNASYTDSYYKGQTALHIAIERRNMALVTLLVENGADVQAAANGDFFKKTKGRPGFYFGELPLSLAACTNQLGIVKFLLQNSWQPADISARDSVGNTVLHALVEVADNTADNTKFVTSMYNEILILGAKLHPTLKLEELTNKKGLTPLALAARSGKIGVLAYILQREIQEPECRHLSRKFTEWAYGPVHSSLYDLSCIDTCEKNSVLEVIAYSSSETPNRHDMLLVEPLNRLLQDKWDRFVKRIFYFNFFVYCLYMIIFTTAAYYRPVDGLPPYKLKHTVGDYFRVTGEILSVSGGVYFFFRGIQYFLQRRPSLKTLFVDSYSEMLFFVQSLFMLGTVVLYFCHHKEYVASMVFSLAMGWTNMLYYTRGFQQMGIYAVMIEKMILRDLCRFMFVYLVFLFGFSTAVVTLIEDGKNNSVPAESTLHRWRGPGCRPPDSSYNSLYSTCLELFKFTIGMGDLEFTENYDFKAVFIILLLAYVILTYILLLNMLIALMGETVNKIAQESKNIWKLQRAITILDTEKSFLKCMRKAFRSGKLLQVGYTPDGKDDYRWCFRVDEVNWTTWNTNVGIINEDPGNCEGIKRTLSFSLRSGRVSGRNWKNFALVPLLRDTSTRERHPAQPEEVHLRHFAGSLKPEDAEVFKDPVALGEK
measurementDescription: cell-based
measuredEndpoint: EC50 (µM)
Note: unit µM is implicit; provide only the numeric part.

Prompt line: # lookup: EC50 of CCCCC/C=C/C=C/C(=O)NCCc1ccc(O)c(OC)c1 [Cap2]
Response line: 0.87
